Data origin, for the record: ChEMBL document CHEMBL5712916

# assay-comment: Cytotoxicity against human Bortezomib-resistant RPMI-8226 cells assessed as reduction in cell viability measured after 72 hrs by Celltiter-glo luminescent cell viability assay
# Format: functional, cell-based
# condition-summary: Bortezomib-resistant RPMI-8226, 72 h
parameter-measured: IC50 (µM)
Numbers only, in µM.

[ask] # IC50 lookup, item COc1cc2c(NC3CCN(C(C)C)CC3)nc(N3CCC(F)(F)CC3)nc2cc1OCCCN1CCCC1
[reply] 25.4

###

# Tested on: JJN-3
# assay-comment: Cytotoxicity against human JJN-3 cells expressing shG9a assessed as reduction in cell viability measured after 72 hrs by Celltiter-glo luminescent cell viability assay
# Type: functional, cell-based
# condition-summary: JJN-3, 72 h
parameter-measured: pIC50
One number for each entry, as −log10 of the molar value.

[ask] # pIC50 lookup, item COc1cc2c(NC3CCN(C(C)C)CC3)nc(N3CCC(F)(F)CC3)nc2cc1OCCCN1CCCC1
[reply] 4.75

###

# Test system: KMS-12-BM
# assay-comment: Cytotoxicity against human KMS-12-BM cells expressing shG9a assessed as reduction in cell viability measured after 72 hrs by Celltiter-glo luminescent cell viability assay
# Format: functional, cell-based
parameter-measured: pIC50
One number for each entry, as −log10 of the molar value.

[ask] # pIC50 lookup, item COc1cc2c(NC3CCN(C(C)C)CC3)nc(N3CCC(F)(F)CC3)nc2cc1OCCCN1CCCC1
[reply] 4.23
